# Test system: Mel-DCC-11-R
# assay.notes: cell viability relative to DMSO control (fraction of DMSO control); higher = less cytotoxic, active = 0.8 or less
# particulars: 1 µM; 120 h; vemurafenib co-treatment 0 µM
The following molecules are listed with their measured cell viability values.
property.label: cell viability

• Cc1cn(-c2cc(NC(=O)c3ccc(C)c(Nc4nccc(-c5cccnc5)n4)c3)cc(C(F)(F)F)c2)cn1 [Nilotinib] = 1.15
• COc1ccc(-c2cc(=S)ss2)cc1 [Anethole trithione] = 1.04
• COc1cccc2c1C(=O)c1c(O)c3c(c(O)c1C2=O)C[C@@](O)(C(=O)CO)C[C@@H]3O[C@H]1C[C@H](N)[C@@H](O)[C@H](C)O1.Cl [Epirubicin hydrochloride] = 0.426
• COc1cc2c(Oc3ccc4[nH]c(C)cc4c3F)ncnc2cc1OCCCN1CCCC1 [Cediranib] = 0.853
• CS(=O)(=O)CCNCc1ccc(-c2ccc3ncnc(Nc4ccc(OCc5cccc(F)c5)c(Cl)c4)c3c2)o1 [Lapatinib] = 1.12
• CC(C)(C#N)c1cc(Cn2cncn2)cc(C(C)(C)C#N)c1 [Anastrozole] = 1
• CN(N=O)C(=O)N[C@@H]1[C@@H](O)[C@H](O)[C@@H](CO)O[C@@H]1O [Streptozocin] = 0.976
• CC(=O)O.CC(C)C[C@H](NC(=O)[C@@H](COC(C)(C)C)NC(=O)[C@H](Cc1ccc(O)cc1)NC(=O)[C@H](CO)NC(=O)[C@H](Cc1c[nH]c2ccccc12)NC(=O)[C@H](Cc1cnc[nH]1)NC(=O)[C@@H]1CCC(=O)N1)C(=O)N[C@@H](CCCN=C(N)N)C(=O)N1CCC[C@H]1C(=O)NNC(N)=O [Goserelin acetate] = 0.927
• CC(=O)O[C@]1(C(C)=O)CC[C@H]2[C@@H]3CCC4=CC(=O)CCC4=C3[C@@H](c3ccc(N(C)C)cc3)C[C@@]21C [Ulipristal acetate] = 1.13
• Cl.N=C1CCCN1Cc1[nH]c(=O)[nH]c(=O)c1Cl.O=c1[nH]c(=O)n([C@H]2C[C@H](O)[C@@H](CO)O2)cc1C(F)(F)F.O=c1[nH]c(=O)n([C@H]2C[C@H](O)[C@@H](CO)O2)cc1C(F)(F)F = 1.23
• CS(=O)(=O)c1ccc(C2=C(c3ccccc3)C(=O)OC2)cc1 [Rofecoxib] = 0.862
• CNCc1ccc(-c2[nH]c3cc(F)cc4c3c2CCNC4=O)cc1.O=P(O)(O)O [Rucaparib Phosphate] = 0.916
• CNC(=O)c1ccccc1Sc1ccc2c(/C=C/c3ccccn3)n[nH]c2c1 [Axitinib] = 0.981
• N#Cc1ccnc(N2C(=O)CC[C@H]2C(=O)N(c2cncc(F)c2)[C@H](C(=O)NC2CC(F)(F)C2)c2ccccc2Cl)c1 [Ivosidenib] = 1.25
• Nc1ncnc2c1ncn2[C@@H]1O[C@H](CO)[C@@H](O)[C@@H]1O [Vidarabine] = 1.11

----------
The following molecules are listed with their measured cell viability values.
# Tested on: Mel-DCC-11
# assay.notes: cell viability relative to DMSO control (fraction of DMSO control); higher = less cytotoxic, active = 0.5 or less
# particulars: 1 µM; 120 h
property.label: cell viability

* S=c1nc[nH]c2nc[nH]c12 [Mercaptopurine] | 0.611
* Cc1ccc(Nc2nccc(N(C)c3ccc4c(C)n(C)nc4c3)n2)cc1S(N)(=O)=O [Pazopanib] | 1.68
* Cc1nc(Nc2ncc(C(=O)Nc3c(C)cccc3Cl)s2)cc(N2CCN(CCO)CC2)n1 [Dasatinib] | 1.25
* Oc1cc(O)cc(/C=C/c2ccc(O)c(O)c2)c1 [Piceatannol] | 0.919
* Nc1nc(Cl)nc2c1ncn2[C@@H]1O[C@H](CO)[C@@H](O)[C@@H]1F [Clofarabine] | 0.59
* COc1ccc2[nH]cc(CCNC(C)=O)c2c1 [Melatonine] | 0.874
* COc1cc2c(Oc3ccc4[nH]c(C)cc4c3F)ncnc2cc1OCCCN1CCCC1 [Cediranib] | 0.87
* CN(C)C(=O)COC(=O)Cc1ccc(OC(=O)c2ccc(N=C(N)N)cc2)cc1.CS(=O)(=O)O [Camostat mesilate] | 1.03
* CCN(CC)CCNC(=O)c1c(C)[nH]c(/C=C2\C(=O)Nc3ccc(F)cc32)c1C [Sunitinib] | 0.532
* COC(=O)N[C@H](C(=O)N1CC2(CC2)C[C@H]1c1ncc(-c2ccc3c(c2)C(F)(F)c2cc(-c4ccc5nc([C@@H]6[C@H]7CC[C@H](C7)N6C(=O)[C@@H](NC(=O)OC)C(C)C)[nH]c5c4)ccc2-3)[nH]1)C(C)C [Ledipasvir] | 1.1
* O=c1[nH]c(=O)n([C@H]2C[C@H](O)[C@@H](CO)O2)cc1C(F)(F)F [Trifluridine] | 1.7
* CNC(=O)c1cc(Oc2ccc(NC(=O)Nc3ccc(Cl)c(C(F)(F)F)c3)cc2)ccn1.Cc1ccc(S(=O)(=O)O)cc1 [Sorafenib tosylate] | 1.35
* C/C(=C\c1csc(C)n1)[C@@H]1C[C@@H]2O[C@]2(C)CCC[C@H](C)[C@H](O)[C@@H](C)C(=O)C(C)(C)[C@@H](O)CC(=O)N1 [Ixabepilone] | 0.316
* CN(C)c1nc(N(C)C)nc(N(C)C)n1 [Altretamine] | 0.88
* CN(C)CCOc1ccc(/C(=C(/CCCl)c2ccccc2)c2ccccc2)cc1 [Toremifene] | 1.1
* CO[C@H]1C=CO[C@@]2(C)Oc3c(C)c(O)c4c(O)c(c(/C=N/N5CCN(C)CC5)c(O)c4c3C2=O)NC(=O)/C(C)=C\C=C/[C@H](C)[C@H](O)[C@@H](C)[C@@H](O)[C@@H](C)[C@H](OC(C)=O)[C@@H]1C [Rifampicin] | 0.597
* C[C@@H](Oc1cc(-c2cnn(C3CCNCC3)c2)cnc1N)c1c(Cl)ccc(F)c1Cl [Crizotinib] | 1.06
* CNC(=O)c1c(C)oc2cc(Oc3ncnc4cc(OC)c(OC)cc34)ccc12 [Fruquintinib] | 1.34
* CC(C)C[C@H](NC(=O)[C@H](CCc1ccccc1)NC(=O)CN1CCOCC1)C(=O)N[C@@H](Cc1ccccc1)C(=O)N[C@@H](CC(C)C)C(=O)[C@@]1(C)CO1 [Carfilzomib] | 0.0151
* Cl.NNc1nncc2ccccc12 [Hydralazine hydrochloride] | 1.17
* CCN(CC)CCOc1ccc2c(c1)C(=O)c1cc(OCCN(CC)CC)ccc1-2.Cl.Cl [Tilorone dihydrochloride] | 1.06
* CCOC(N)=O [Urethane] | 0.892
* NC1CCCCC1N.O=C([O-])C(=O)[O-].[Pt+2] (centres undefined) [Oxaliplatin] | 1.09
* CC(=O)O[C@@]12CO[C@@H]1C[C@H](O)[C@@]1(C)C(=O)[C@H](O)C3=C(C)[C@@H](OC(=O)[C@H](O)[C@@H](NC(=O)OC(C)(C)C)c4ccccc4)C[C@@](O)([C@@H](OC(=O)c4ccccc4)[C@H]21)C3(C)C [Docetaxel] | 0.61
* CCOc1cc2ncc(C#N)c(Nc3ccc(OCc4ccccn4)c(Cl)c3)c2cc1NC(=O)/C=C/CN(C)C [Neratinib] | 1.03
* COc1ccc(/C=C\c2cc(OC)c(OC)c(OC)c2)cc1OP(=O)([O-])[O-].[Na+].[Na+] [Fosbretabulin Disodium] | 0.599
* C=CC(=O)Nc1cc(Nc2nccc(-c3cn(C)c4ccccc34)n2)c(OC)cc1N(C)CCN(C)C.CS(=O)(=O)O [Osimertinib mesylate] | 0.859
* COC(=O)C1=C(C)NC(C)=C(C(=O)OC)C1c1ccccc1[N+](=O)[O-] [Nifedipine] | 1.07
* Clc1ccc(C(c2ccccc2Cl)C(Cl)Cl)cc1 (centres undefined) [Mitotan] | 0.903

Origin of the recorded values: the supplement of paper PMC12808144
